B1: HDV Ribozyme (parent)
chain: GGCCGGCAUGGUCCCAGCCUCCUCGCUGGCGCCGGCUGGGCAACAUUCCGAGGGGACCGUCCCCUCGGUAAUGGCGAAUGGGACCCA

Variants of: B1
assay.summary: self-cleavage, relative activity (ratio to wild type); higher = more cleavage; co-transcriptional

variant.name | self-cleavage
C19G G59C | 0.141
G54A A56U | 0.878
G31A C44G | 0.133
G53C A83C | 0.525
C13U A51C | 0.997
C7G A16C | 0.151
U23A C63G | 0.877
G80A C86A | 0.532
G55U G67U | 1.07
C18A A45G | 0.0594
G53U U69G | 0.964
G11C A87C | 0.607
A16U G82A | 0.745
A8C U60C | 0.489
C21U C61G | 0.277
C64U C84U | 0.785
G40A G76A | 0.918
G2A A78U | 0.0674
C4U C33U | 0.612
G17U G59U | 0.43
G34U A45C | 0.117
C58U U72A | 0.58
C24G C49A | 0.0804
G1A C7G | 0.0405
G38C G73U | 0.13
C30A U46A | 0.147
C7U U72A | 0.604
C15G A77C | 0.128
C13A C24G | 0.117
G11C G76C | 0.628
U46G C64U | 0.776
G53C G73U | 0.369
G17U G54A | 0.326
A43U G67A | 0.237
G34A A43C | 0.119
C30G G67C | 0.0528
G68U A78G | 0.639
G17C A56G | 0.145
C66G C75G | 0.383
C19A C30U | 0.0623
C21G G50A | 0
A45C G59C | 0.696
C14A G28A | 0.141
A8C C64G | 0.415
G5U G40C | 0.115
G25A A71C | 0.185
U20C A83C | 0.133
C14A C75A | 0.208
G17U C62A | 0.429
A45U U47G | 0.867
U60A U79C | 0.515
G29U U72A | 0.218
A70U A87U | 1.2
U69C G82C | 0.361
U20G C63A | 0.214
C3U U46C | 0.567
G52A G59U | 0.865
A43U U69A | 0.449
C4A G5A | 0.13
C24A C63U | 0.692
C14U C33G | 0.123
U9C A42G | 0.886
C44U G52C | 0.806
G11A U37G | 0.142
C15A G59C | 0.723
C19A C61U | 0.0671
